System: U251 CNS
assay details: NCI tumour cell line growth inhibition, 48 h
test readout: TGI (µM)

>>> reported_measurement("COc1cc(C2c3cc4c(cc3[C@@H](OCCN)[C@H]3COC(=O)C23)OCO4)cc(OC)c1O (some centres not stated)")
0.401
>>> reported_measurement("CNC1=C(C)C(=O)C2=C(C1=O)C(COC(N)=O)C1(OC)C3NC3CN21 (configuration not stated)")
15
>>> reported_measurement("C=C(CNCCc1ccc(O)cc1)[C@@H]1CC[C@]2(CO)CC[C@]3(C)[C@H](CC[C@@H]4[C@@]5(C)CCC(NCCO)C(C)(C)[C@@H]5CC[C@]43C)[C@@H]12 (some centres not stated)")
2.24
>>> reported_measurement("O=[N+]([O-])c1ccc(N=Nc2c(O)[nH]c3ccc(Br)cc23)c([N+](=O)[O-])c1")
16.3
>>> reported_measurement("Cc1nc(N=C(N)N)nc2ccc3ccccc3c12")
2.29
>>> reported_measurement("O=C(CCl)Nc1ccc(-c2nc3ccccc3s2)cc1")
3.15
>>> reported_measurement("COc1ccc([N+](=O)[O-])cc1[I+]c1cc([N+](=O)[O-])ccc1OC")
34.2
>>> reported_measurement("N/C(=N/O)c1cn(C2OC(CO)C(O)C2O)c2ncnc(NO)c12 (configuration not stated)")
54.1
>>> reported_measurement("COc1ccc(C2=NN(c3ccc(S(N)(=O)=O)cc3)C(c3ccc(Cl)cc3)C2)c(O)c1 (configuration not stated)")
21.2
